Tested on: Colo38, Colo38R, M21, M21R and TPF-10-741 cells
Experiment: MTT dose titration of PDGFRα-I
Type: cell-based
Conditions: Homo sapiens; dose titration experiment, MTT assay, the 5 cell lines; read-out: IC50 doses
pIC50: −log10 of the molar value.
measure.name: pIC50

CCN(CC)CCNC(=O)c1c(C)[nH]c(/C=C2\C(=O)Nc3ccc(F)cc32)c1C [sunitinib]: 5.70
CC1(COc2ccc3c(c2)ncn3-c2ccc3cccc(N4CCC(N)CC4)c3n2)COC1 [crenolanib]: 6.00
